Reported delta pKa pKaLDEE − pKaacid (first value) values for the following compounds.
assay: pKa and delta pKa (pKa LDEE − pKa acid); assay type: physicochemical
Lab note: write the figure by itself, no unit.

Would you please look over these solved cases?
- compound: "CCOC(=O)[C@@H](N)Cc1ccc(O)c(O)c1.CS(=O)(=O)O [Example 3, LDEE Mesylate]"
  value: 6.04
- compound: "CCCCCCCC(=O)O.CCOC(=O)[C@@H](N)Cc1ccc(O)c(O)c1 [Example 19, LDEE Octanoate]"
  value: 2.35
- compound: "CCOC(=O)[C@@H](N)Cc1ccc(O)c(O)c1.O=P(O)(O)O [Example 11, LDEE Phosphate]"
  value: 5.09

Field: next compound
Tell me measured delta pKa pKaLDEE − pKaacid (first value) for CC(=O)O.CCOC(=O)[C@@H](N)Cc1ccc(O)c(O)c1 [Example 2, LDEE Acetate] please.
2.48

----------
Reported Mean water absorption rate at RH = 80% values for the following compounds.
Assay: Hygroscopicity test: weight gain of solid sample in humidity chamber at RH=80%
Format: physicochemical
Details: RH = 80%
Source text: There are many methods of quantitative evaluation of hygroscopicity of solid products without measuring the hygroscopic point. The most widely used method is based on measuring the weight gain of a solid sample in a humidity chamber. […] This method was used for screening the hygroscopicity of several LDEE salts. It also provides a comparison of the hygroscopic properties of different solids by comparison of water absorption rates under the same conditions.
Report the figure along with its unit, number first.

- compound: "CCOC(=O)[C@@H](N)Cc1ccc(O)c(O)c1.O=C(O)c1ccccc1 [Example 8, LDEE Benzoate]"
  Mean water absorption rate at RH = 80%: "0.09 mol/kg/h"

Tell me measured Mean water absorption rate at RH = 80% for CCOC(=O)[C@@H](N)Cc1ccc(O)c(O)c1.O=C(O)C(O)C(O)C(=O)O [Example 6, LDEE D(−)Tartrate] please.
0.155 mol/kg/h

Tell me measured Mean water absorption rate at RH = 80% for CCOC(=O)[C@@H](N)Cc1ccc(O)c(O)c1.CS(=O)(=O)O [Example 3, LDEE Mesylate] please.
0.405 mol/kg/h

Tell me measured Mean water absorption rate at RH = 80% for CCO.CCOC(=O)[C@@H](N)Cc1ccc(O)c(O)c1.O=C(O)/C=C\C(=O)O [Example 28, LDEE Maleate Ethanolate] please.
0.07 mol/kg/h

Tell me measured Mean water absorption rate at RH = 80% for CCO.CCOC(=O)[C@@H](N)Cc1ccc(O)c(O)c1.CCOC(=O)[C@@H](N)Cc1ccc(O)c(O)c1.O=C(O)CCCCC(=O)O [Example 21, LDEE Adipate Ethanolate] please.
0.121 mol/kg/h

Tell me measured Mean water absorption rate at RH = 80% for CCOC(=O)[C@@H](N)Cc1ccc(O)c(O)c1.CCOC(=O)[C@@H](N)Cc1ccc(O)c(O)c1.O.O.O=C(O)/C=C/C(=O)O [Example 25, LDEE Fumarate Dihydrate] please.
0.0004 mol/kg/h

Tell me measured Mean water absorption rate at RH = 80% for CCOC(=O)[C@@H](N)Cc1ccc(O)c(O)c1 please.
0.005 mol/kg/h

----------
experiment: Hygroscopicity test: weight gain of solid sample in humidity chamber at RH=80%; assay type: physicochemical; details: RH=80% screening
assay.readout: hygroscopicity (in words)

Would you please look over these solved cases?
- molecule: "CCOC(=O)[C@@H](N)Cc1ccc(O)c(O)c1.O=C(O)c1ccccc1 [Example 8, LDEE Benzoate]"
  hygroscopicity (in words): "hygroscopic"
- molecule: "CCOC(=O)C(N)Cc1ccc(O)c(O)c1.O=C(O)C(O)C(O)C(=O)O (mixture of isomers) [Example 7, LDEE (LD)Tartrate]"
  hygroscopicity (in words): "hygroscopic"
- molecule: "CCO.CCOC(=O)[C@@H](N)Cc1ccc(O)c(O)c1.CCOC(=O)[C@@H](N)Cc1ccc(O)c(O)c1.O=C(O)CCCCC(=O)O [Example 21, LDEE Adipate Ethanolate]"
  hygroscopicity (in words): "hygroscopic"
- molecule: "CCO.CCOC(=O)[C@@H](N)Cc1ccc(O)c(O)c1.O=C(O)/C=C\\C(=O)O [Example 28, LDEE Maleate Ethanolate]"
  hygroscopicity (in words): "hygroscopic"
- molecule: "CC(=O)O.CCOC(=O)[C@@H](N)Cc1ccc(O)c(O)c1 [Example 2, LDEE Acetate]"
  hygroscopicity (in words): "hygroscopic"

Tell me measured hygroscopicity (in words) for CCOC(=O)[C@@H](N)Cc1ccc(O)c(O)c1.CCOC(=O)[C@@H](N)Cc1ccc(O)c(O)c1.O.O.O=C(O)CCC(=O)O [Example 23, LDEE Succinate Dihydrate] please.
non-hygroscopic

Tell me measured hygroscopicity (in words) for CCOC(=O)[C@@H](N)Cc1ccc(O)c(O)c1.CCOC(=O)[C@@H](N)Cc1ccc(O)c(O)c1.O.O.O=C(O)/C=C/C(=O)O [Example 25, LDEE Fumarate Dihydrate] please.
non-hygroscopic

Tell me measured hygroscopicity (in words) for CCOC(=O)[C@@H](N)Cc1ccc(O)c(O)c1.O=C(O)C(O)C(O)C(=O)O [Example 4, LDEE L(+)Tartrate] please.
hygroscopic

Tell me measured hygroscopicity (in words) for CCOC(=O)C(N)Cc1ccc(O)c(O)c1.O=C(O)C(O)c1ccccc1 (stereo not drawn) [Example 17, LDEE R(−)Mandelate] please.
hygroscopic

Tell me measured hygroscopicity (in words) for CCO.CCOC(=O)[C@@H](N)Cc1ccc(O)c(O)c1.CCOC(=O)[C@@H](N)Cc1ccc(O)c(O)c1.O=C(O)CCC(=O)O [Example 22, LDEE Succinate Ethanolate] please.
hygroscopic
